- protocol_description: clinical
- condition_set: both, human, in vivo, AUC (0-t)
observable: AUC(0-t) (ng·h/mL)

Cc1ccc(C(=O)C(C)CN2CCCCC2)cc1 (stereo not shown) ... 117

---

- protocol_description: clinical
- condition_set: female, human, in vivo, t½
observable: half-life (h)

Cc1ccc(C(=O)C(C)CN2CCCCC2)cc1 (stereo not shown) [Tolperisone] ... 1.17

---

- protocol_description: clinical
- condition_set: female, human, in vivo, AUC(0-t)
observable: AUC(0-t) (ng·h/mL)

Cc1ccc(C(=O)C(C)CN2CCCCC2)cc1 (stereo not shown) [Tolperisone] ... 173

---

- protocol_description: clinical
- condition_set: male, human, in vivo, Tmax
observable: Tmax (min)

Cc1ccc(C(=O)C(C)CN2CCCCC2)cc1 (stereo not shown) ... 45

---

- protocol_description: clinical
- condition_set: male, human, in vivo, AUC(0-6)
observable: AUC(0-t) (ng·h/mL)

Cc1ccc(C(=O)C(C)CN2CCCCC2)cc1 (stereo not shown) ... 162

---

- protocol_description: clinical
- condition_set: male, human, in vivo, t½
observable: half-life (h)

Cc1ccc(C(=O)C(C)CN2CCCCC2)cc1 (stereo not shown) ... 1.24

---

- protocol_description: clinical
- condition_set: male, human, in vivo, AUC(0-t)
observable: AUC(0-t) (ng·h/mL)

Cc1ccc(C(=O)C(C)CN2CCCCC2)cc1 (stereo not shown) ... 93.1
